Taken from patent US10087172B2.

Below are molecules with their IC50 as measured on glutaminase (GAC) (Homo sapiens, UniProt O94925).
Sequence (O94925 55-598 isoform O94925-3 limits assumed): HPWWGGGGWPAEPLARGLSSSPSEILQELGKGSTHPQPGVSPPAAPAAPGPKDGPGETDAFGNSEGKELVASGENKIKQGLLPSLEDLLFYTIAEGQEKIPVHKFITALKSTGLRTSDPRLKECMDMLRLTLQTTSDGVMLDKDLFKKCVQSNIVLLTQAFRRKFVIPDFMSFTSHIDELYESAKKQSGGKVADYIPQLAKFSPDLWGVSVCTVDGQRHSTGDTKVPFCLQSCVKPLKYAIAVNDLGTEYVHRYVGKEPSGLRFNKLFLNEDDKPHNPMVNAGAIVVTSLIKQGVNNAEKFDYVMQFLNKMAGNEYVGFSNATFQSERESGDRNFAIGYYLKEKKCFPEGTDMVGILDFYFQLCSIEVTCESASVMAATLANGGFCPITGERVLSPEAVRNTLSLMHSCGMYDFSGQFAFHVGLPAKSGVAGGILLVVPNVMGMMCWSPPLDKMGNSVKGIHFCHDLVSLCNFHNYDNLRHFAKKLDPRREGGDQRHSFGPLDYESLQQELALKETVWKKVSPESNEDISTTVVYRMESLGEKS

Solved cases below.
- molecule: "N#Cc1cccnc1CC(=O)Nc1nnc([C@H]2CCC[C@H](c3nnc(NC(=O)Cc4ncccc4C#N)s3)C2)s1 (relative stereo) [Compound 113]"
  IC50: "< 100 nM"
- molecule: "O=C(Cc1c(F)cccc1F)Nc1nnc([C@H]2CCC[C@H](c3nnc(NC(=O)Cc4c(F)cccc4F)s3)C2)s1 [Compound 89]"
  IC50: "100 to 500 nM"
- molecule: "O=C(Cc1cccc(OC(F)(F)F)c1)Nc1nnc([C@H]2CCC[C@H](c3nnc(NC(=O)Cc4cccc(N5CC(F)(F)C5)n4)s3)C2)s1 [Compound 388]"
  IC50: "< 100 nM"

Problem: Sample O=C(Cc1nccs1)Nc1nnc([C@H]2CCC[C@H](c3nnc(NC(=O)Cc4nccs4)s3)C2)s1 [Compound 100] — what was its IC50?
Solution: < 100 nM

Problem: Next record, please: O=C(Nc1nnc([C@H]2CCC[C@H](c3nnc(NC(=O)C4CCOC4)s3)C2)s1)C1CCOC1 (some centres unmarked) [Compound 48]
Solution: 500 to 1000 nM

Problem: Next record, please: O=C(Cc1ccccc1OC(F)(F)F)Nc1nnc([C@H]2CCC[C@H](c3nnc(NC(=O)Cc4ccccc4OC(F)(F)F)s3)C2)s1 [Compound 75]
Solution: 100 to 500 nM

Problem: Next record, please: O=C(CN1CCCC1=O)Nc1nnc([C@H]2CCC[C@H](c3nnc(NC(=O)CN4CCCC4=O)s3)C2)s1 [Compound 85]
Solution: 500 to 1000 nM

Problem: Next record, please: CN(C)c1cccnc1CC(=O)Nc1nnc([C@H]2CCC[C@H](c3nnc(NC(=O)Cc4ncccc4N(C)C)s3)C2)s1 (relative stereo) [Compound 115]
Solution: 500 to 1000 nM
